Reported values: pKi for Amine oxidase [flavin-containing] A (Bos taurus), one per item.
pKi: −log10 of the molar value.
MEASURED ATTRIBUTE: pKi

compound=NC(=S)N1N=C(c2ccc(F)cc2)C[C@H]1c1ccc(Cl)cc1 reported_result=8.30
compound=Cc1ccc(C2=NN(C(N)=S)[C@@H](c3ccc(Cl)cc3)C2)cc1 reported_result=7.89
compound="NC(=S)N1N=C(c2ccc(F)cc2)CC1c1ccco1 (centres undefined)" reported_result=8.10
compound="Cc1ccc(C2=NN(C(N)=S)C(c3ccc(C)cc3)C2)cc1 (centres undefined)" reported_result=8.22
